All figures here come from patent US20170037149A1.

Measurement Target: T1, human FLT3 (human, UniProt P36888 27-993)
T1 construct: On transfected CHO cells, or on the FLT3 positive human AML cell lines EOL-1 / MV4-11 where the row says so; also called hu FLT3; full length human FLT3
Method Description: FACS, scFv on CHO-human FLT3 pre-incubated with FLT3 ligand (competitor)
Recorded median [+ligand]/median [w/o ligand]*100 values for a group of binders are listed next.

[
  {
    "Binder": "FL-17 scFv (scFv, periplasmic prep) scFv: QVTLKESGPTLVKPTETLTLTCTVSGFSLSNARMGVSWIRQPPGKALEWLANIFSNDEKSYSTSLKSRLTISKGTSKSQVVLTMTNVNPVDTGTYYCARIVGYGSGWYGYFDYWGQGTLVTVSSGGGGSGGGGSGGGGSDIQMTQSPSSLSASVGDRVTITCRASQDIRNDLGWYQQKPGKAPKRLIYATSIRQSGVPSRFTGSGSGTEFTLTISGLQPEDFATYFCLQHNSFPLTFGGGTKVEIK",
    "median [+ligand]/median [w/o ligand]*100": "≥ 75%"
  },
  {
    "Binder": "FL-19 scFv (scFv, periplasmic prep) scFv: QVTLKESGPTLVKPTETLTLTCTVSGFSLSYARMGVSWIRQPPGKALEWLAQIFSNDEKSYSTSLKSRLTISKDTSKSQVVLTMTDMDPEDTATYYCARIVGYGTGWYGYFDYWGQGTQVTVSSGGGGSGGGGSGGGGSDIQMTQSPSSLSASVGDRVTITCRASQDIGDDLGWYQQKPGKAPKRLIYAASTLQSGVPFRFSGSGSGTDFTLTISSLQPEDFATYYCLQHNSYPLTFGGGTKVEIK",
    "median [+ligand]/median [w/o ligand]*100": "≥ 75%"
  }
]

Please find the next binder below.
The value of median [+ligand]/median [w/o ligand]*100 measured for the binder FL-22 scFv (scFv, periplasmic prep) scFv: QVTLKESGPVLVKPTETLTLTCTVSGFSFRNARMGVSWIRQPPGKALEWLAHIFSNDEKSYSTSLKSRLTISKDTSKSQVVLTLTNMDPVDTATYFCARMPEYSSGWSGAFDIWGQGTMVTVSSGGGGSGGGGSGGGGSDIQMTQSPSSLSASVGDRVTITCRASQGISNYLAWYQQKPGKAPKRLIYAASTLQSGVPSRFSGSGSGTEFTLTISSLQPEDFATYYCLQHNTYPWTFGQGTKVEIK turned out to be ≥ 75%
